- Tested on: dwarf rice Oryza satina var. Tan-ginbozu
- protocol_notes: rice leaf lamina inclination bioassay
- Assay type: in vivo
- measurement_setup: all dosage levels, with or without IAA application
measured_parameter: bioactivity in the rice leaf lamina inclination assay

// known answers, use as guide
• Oc1cc2c(O)ccc(CCc3ccc(O)c4cc(O)c(O)cc34)c2cc1O [Mimetic 9, 1,2-Bis(4,6,7-trihydroxynaphthyl)ethane] = no bioactivity
• OC1Cc2ccc(/C=C/c3ccc4c(c3)CC(O)C(O)C4)cc2CC1O (single isomer, unassigned) [Mimetic 7] = completely inactive
• Oc1ccc(CCc2ccc(O)c3c2CC(O)C(O)C3)c2c1CC(O)C(O)C2 (single isomer, unassigned) [Mimetic 8] = no bioactivity
• OC1Cc2ccc(C#Cc3ccc4c(c3)CC(O)C(O)C4)cc2CC1O (single isomer, unassigned) [Mimetic 5] = completely inactive
• O=C1CC=C(C#CC2=CCC(=O)C3CC(O)C(O)CC23)C2CC(O)C(O)CC12 (mixture of isomers) [Mimetic 10] = devoid of activity

Now let's try a different one.
Request: Returns the measured bioactivity in the rice leaf lamina inclination assay for the input molecule. Input: O=C1CCC(=NN=C2CCC(=O)C3CC(O)C(O)CC23)C2CC(O)C(O)CC12 (single isomer, unassigned) [Mimetic 12]
Response: devoid of activity
